- Species: Rattus norvegicus
- experiment_summary: Open TG-GATES - Regimen: Single
- Assay type: toxicity, organism-based, Sprague-Dawley
- Design: regimen Single, gender Male, age 6 weeks
- condition_summary: in vivo, po, 100 mg/kg, 3 h, tissue Blood, route gavage, dose level Low
Give MCV for every item shown.
Report only the number, with the unit fL understood.

*Q* Dear colleague, I am looking for the recorded MCV of the following molecule: Cc1nnc2n1-c1ccc(Cl)cc1C(c1ccccc1Cl)=NC2
*A* 63.8

*Q* // next record CN/C(=N/CCSCc1nc[nH]c1C)NC#N
*A* 64.1

*Q* Please give the result for CNC(=C[N+](=O)[O-])NCCSCc1ccc(CN(C)C)o1 too.
*A* 64.5

*Q* COC(=O)C1=C(C)NC(C)=C(C(=O)OC)C1c1ccccc1[N+](=O)[O-] ?
*A* 62.6

*Q* // same read-out, input: O=C(OC[C@H]1O[C@@H](OC(=O)c2cc(O)c(O)c(OC(=O)c3cc(O)c(O)c(O)c3)c2)[C@H](OC(=O)c2cc(O)c(O)c(OC(=O)c3cc(O)c(O)c(O)c3)c2)[C@@H](OC(=O)c2cc(O)c(O)c(OC(=O)c3cc(O)c(O)c(O)c3)c2)[C@@H]1OC(=O)c1cc(O)c(O)c(OC(=O)c2cc(O)c(O)c(O)c2)c1)c1cc(O)c(O)c(OC(=O)c2cc(O)c(O)c(O)c2)c1
*A* 65.6
